test system: bombesin receptor (Mus musculus, UniProt P21729)
Sequence (P21729 whole entry): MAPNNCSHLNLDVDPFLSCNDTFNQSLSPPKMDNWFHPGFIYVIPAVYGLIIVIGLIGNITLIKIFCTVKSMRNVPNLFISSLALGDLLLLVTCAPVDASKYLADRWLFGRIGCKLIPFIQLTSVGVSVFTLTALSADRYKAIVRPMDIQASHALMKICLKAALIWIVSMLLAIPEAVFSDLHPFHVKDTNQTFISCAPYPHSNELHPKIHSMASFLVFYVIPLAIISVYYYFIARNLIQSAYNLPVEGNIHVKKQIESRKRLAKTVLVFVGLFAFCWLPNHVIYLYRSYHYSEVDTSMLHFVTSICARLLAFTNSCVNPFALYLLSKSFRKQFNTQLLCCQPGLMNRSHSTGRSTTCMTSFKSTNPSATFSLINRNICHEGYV
Non-standard residues stand in square brackets, D forms with d. Residues, ends and D or L forms follow the SMILES beside them. *: point of attachment. Octanoyl = CCCCCCCC(=O)*
experimental readout: pKd
Schema: pKd number; meaning minus log10 of the concentration expressed in molar units.

Query: Looking for the measured pKd of CCCCCCCC(=O)N[C@@H](CCC(N)=O)C(=O)N[C@@H](Cc1c[nH]c2ccccc12)C(=O)N[C@@H](C)C(=O)N[C@H](C(=O)N[C@H](C)C(=O)N[C@@H](Cc1c[nH]cn1)C(=O)N[C@@H](CC(C)C)C(N)=O)C(C)C [Example 1] (Octanoyl-QWAV[dA]HL-NH2) , can you help?
Result: 8.30
